Exercise: for every item that follows, state its recorded NUCLEATED RED BLOOD CELLS.
species on record: Rattus norvegicus; assay: DrugMatrix - Regimen: Daily Repeat; type: toxicity, organism-based, Sprague-Dawley; parameters: regimen Daily Repeat, gender Male, age 6-8 weeks; conditions: in vivo, iv, 0 mg/kg, 72 h, tissue Blood, dose level Control, time 3 day, vehicle 100 % SALINE

Consider the compound CC1(C)S[C@@H]2[C@H](NC(=O)[C@H](NC(=O)N3CCNC3=O)c3ccccc3)C(=O)N2[C@H]1C(=O)O and give its measured NUCLEATED RED BLOOD CELLS. 0 /100WBC

Consider the compound CC[C@@]1(O)C(=O)OCc2c1cc1n(c2=O)Cc2cc3ccccc3nc2-1 and give its measured NUCLEATED RED BLOOD CELLS. 0 /100WBC

Consider the compound CN(N=O)C(=O)N[C@@H](C=O)[C@@H](O)[C@H](O)[C@H](O)CO and give its measured NUCLEATED RED BLOOD CELLS. 0 /100WBC

Consider the compound NCC[C@H](O)C(=O)N[C@@H]1C[C@H](N)[C@@H](O[C@H]2O[C@H](CN)[C@@H](O)[C@H](O)[C@H]2O)[C@H](O)[C@H]1O[C@H]1O[C@H](CO)[C@@H](O)[C@H](N)[C@H]1O and give its measured NUCLEATED RED BLOOD CELLS. 0.17 /100WBC

---

species on record: Rattus norvegicus; experiment: DrugMatrix - Regimen: Daily Repeat; format: toxicity, organism-based, Sprague-Dawley; set-up: regimen Daily Repeat, gender Male, age 6-8 weeks; details: in vivo, po, 0 mg/kg, 72 h, tissue Blood, route oral GAVAGE, dose level Control, time 3 day, […]
measurement-name: LEUKOCYTE COUNT (x10E3/uL)
Just the number please, in x10E3/uL, no unit attached.

Consider the compound CC(=O)[C@H]1CC[C@H]2[C@@H]3CCC4=CC(=O)CC[C@]4(C)[C@H]3CC[C@]12C [PROGESTERONE] and give its measured LEUKOCYTE COUNT. 9.73

Consider the compound COC1=CC(=O)C[C@@H](C)[C@]12Oc1c(Cl)c(OC)cc(OC)c1C2=O [GRISEOFULVIN] and give its measured LEUKOCYTE COUNT. 16.6

Consider the compound CC(C)(Oc1ccc(CCNC(=O)c2ccc(Cl)cc2)cc1)C(=O)O [BEZAFIBRATE] and give its measured LEUKOCYTE COUNT. 7.32

Consider the compound c1ccc2[nH]c(-c3cscn3)nc2c1 [THIABENDAZOLE] and give its measured LEUKOCYTE COUNT. 10.65

Consider the compound CCCCCCCCCc1ccc(O)cc1 [4-NONYLPHENOL] and give its measured LEUKOCYTE COUNT. 12.45

Consider the compound CC1=C(/C=C/C(C)=C/C=C/C(C)=C\C(=O)O)C(C)(C)CCC1 [ISOTRETINOIN] and give its measured LEUKOCYTE COUNT. 9.52

Consider the compound COCc1c(C(C)C)nc(C(C)C)c(/C=C/[C@@H](O)C[C@@H](O)CC(=O)O)c1-c1ccc(F)cc1 [CERIVASTATIN] and give its measured LEUKOCYTE COUNT. 12.45

Consider the compound CN(C)CCCC1(c2ccc(F)cc2)OCc2cc(C#N)ccc21 (stereo not given) [CITALOPRAM] and give its measured LEUKOCYTE COUNT. 9.73

Consider the compound CSc1ccc2c(c1)N(CCC1CCCCN1C)c1ccccc1S2 (stereo not given) [THIORIDAZINE] and give its measured LEUKOCYTE COUNT. 12.8

Consider the compound CC(C)n1c(/C=C/C(O)CC(O)CC(=O)O)c(-c2ccc(F)cc2)c2ccccc21 (stereo not given) [FLUVASTATIN] and give its measured LEUKOCYTE COUNT. 10.68

Consider the compound C=CCN [ALLYLAMINE] and give its measured LEUKOCYTE COUNT. 11.77

Consider the compound CCCC[C@@H](CC)COC(=O)c1ccccc1C(=O)OC[C@@H](CC)CCCC [BIS(2-ETHYLHEXYL)PHTHALATE] and give its measured LEUKOCYTE COUNT. 10.65

Consider the compound Cn1cnc([N+](=O)[O-])c1Sc1ncnc2nc[nH]c12 [AZATHIOPRINE] and give its measured LEUKOCYTE COUNT. 8.7

Consider the compound Oc1c(Cl)cc(Cl)cc1Sc1cc(Cl)cc(Cl)c1O [BITHIONOL] and give its measured LEUKOCYTE COUNT. 10.68

Consider the compound COc1ccc2c(c1)c(CC(=O)OCC(=O)O)c(C)n2C(=O)c1ccc(Cl)cc1 [ACEMETACIN] and give its measured LEUKOCYTE COUNT. 16.12
